B1: CD2-associated protein, residues 271 to 331; numbered along this chain, Q9Y5K6 (parent)
chain: KEYCRTLFAYEGTNEDELTFKEGEIIHLISKETGEAGWWRGELNGKEGVFPDNFAVQINEL

Variants of: B1
assay comment: abundance fitness (aPCA) (normalised: wild type 0, dead -1); higher = more abundant; growth selection in yeast, the domain comes from the species named
condition: Homo sapiens
abundance fitness by entry:
assay endpoint: abundance fitness

In [3]: df
Out[3]:
    variant_identifier  measurement
 0                P51I        -0.49
 1                E24T       -0.286
 2                G34T       -0.086
 3                G48N       -0.998
 4                F54M       -0.079
 5                G41P       -0.605
 6                 K1Q       -0.343
 7                E47Y       -0.171
 8                G23P       -0.892
 9                V56R       -0.161
10                I58W       -0.213
11                K31S       -0.571
12                G12D       -0.794
13                L43C        -0.26
14                W39Y       -0.579
15                L28T       -0.441
16                L43A       -0.285
17                 A9E        -0.09
18                I29Q       -0.494
19                W38D       -0.825
20                N44M       -0.172
21                 Y3E       -0.567
22                V56P       -0.567
23                D16A       -0.061
24                L61M       -0.003
25                 K1Y       -0.656
26                 K1S       -0.229
27                H27D       -0.335

// data source = the Human Domainome abundance scans (Beltran et al. 2025)
